target: human M1 receptor (Homo sapiens)
Sequence (P11229 whole entry): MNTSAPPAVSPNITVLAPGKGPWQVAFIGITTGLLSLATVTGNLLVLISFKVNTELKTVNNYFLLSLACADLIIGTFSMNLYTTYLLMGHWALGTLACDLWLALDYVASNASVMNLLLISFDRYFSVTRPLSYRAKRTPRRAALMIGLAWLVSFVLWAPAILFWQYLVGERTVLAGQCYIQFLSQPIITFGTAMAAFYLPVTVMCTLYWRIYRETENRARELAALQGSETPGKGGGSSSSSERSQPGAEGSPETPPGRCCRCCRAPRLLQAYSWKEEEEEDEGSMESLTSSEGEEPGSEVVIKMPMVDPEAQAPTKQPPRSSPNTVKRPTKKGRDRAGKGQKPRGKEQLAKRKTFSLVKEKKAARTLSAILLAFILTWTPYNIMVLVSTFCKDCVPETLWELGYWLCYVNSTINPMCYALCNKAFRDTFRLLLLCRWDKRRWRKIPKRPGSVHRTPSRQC
run-description: In vitro functional assay of muscarinic acetylcholine receptor activity (aequorin calcium flux, antagonist mode vs EC80 acetylcholine), M1
Format: cell-based
measurement-context: CHO-K1 cells stably expressing human M1 receptor with Aequorin; decrease in EC80 acetylcholine response; read-out: M1 IC50
pIC50: −log10 of the molar value.
recorded-endpoint: pIC50

What does the record list as pIC50 for Cc1cncc(Cl)c1N1CCN(C(=O)CCS(=O)(=O)c2cccc3ncsc23)CC1 [Example 107] ?
5.00 to 6.00

Okay, and O=C(CCCc1cccc2ncccc12)N1CCN(c2ccncc2)CC1 [Example 4] ?
> 7.00

Okay, and O=C(CCNCc1cccc2ncsc12)N1CCN(c2ccc(C(F)(F)F)cn2)CC1 [Example 119] ?
5.00 to 6.00

Okay, and CC1CN(C(=O)CCCc2cccc3ncccc23)CCN1c1ccncc1 (centres unmarked) [Example 60] ?
> 7.00

Okay, and O=C(CCCc1cccc2ncccc12)N1CC2CC1CN2c1ccncc1 (centres unmarked) [Example 57] ?
6.00 to 7.00
